- Test system: Mus musculus
- testProtocol: Anticonvulsant activity in albino mouse at 100 mg/kg, ip after 0.5 hrs by PTZ test
- Type: functional, organism-based
- Set-up: dose 100 mg/kg
The source made the active and inactive calls. The calls are words filed in the database; no cut-off is given here.
Outcomes: Yes for active, No for inactive

mol	categoryLabel
CCCC(CCC)CN(C(=O)OC(C)(C)C)S(=O)(=O)NCCC(=O)OC	No
COC(=O)CCNS(=O)(=O)NCCC(=O)OC	No
COC(=O)[C@@H](C)NS(=O)(=O)NC(=O)OC(C)(C)C	No
COC(=O)[C@H](C)NS(=O)(=O)N[C@@H](C)C(=O)OC	No
COC(=O)CCNS(=O)(=O)Oc1ccccc1O	No
CCCC(CCC)CNS(=O)(=O)NCC(=O)OC	No
CCCC(CCC)CN(C(=O)OC(C)(C)C)S(=O)(=O)NCC(=O)OC	No
COC(=O)CNS(=O)(=O)NC(=O)OC(C)(C)C	No
CCCC(CCC)CNS(=O)(=O)NCCC(=O)OC	Yes
COC(=O)CNS(=O)(=O)NCc1ccccc1	No
COC(=O)CCNS(=O)(=O)NCc1ccccc1	No
COC(=O)CCNS(=O)(=O)NC(=O)OC(C)(C)C	No
COC(=O)CNS(=O)(=O)N(Cc1ccccc1)C(=O)OC(C)(C)C	No
CCCCNS(=O)(=O)NCCC(=O)OC	No
COC(=O)[C@@H](NS(=O)(=O)N[C@H](C(=O)OC)C(C)C)C(C)C	No

----------
- Tested on: Mus musculus
- testProtocol: Toxicity in albino mouse at 100 mg/kg, ip after 0.5 hrs by rotarod test
- Type: organism-based
- Design: dose 100 mg/kg, route intraperitoneal
- setupConditions: in vivo
metric: Activity

mol	metric	measuredValue
CCCC(CCC)CNS(=O)(=O)NCCC(=O)OC	Activity	Non-toxic
COC(=O)[C@@H](C)NS(=O)(=O)NC(=O)OC(C)(C)C	Activity	Non-toxic
COC(=O)CCNS(=O)(=O)NCCC(=O)OC	Activity	Non-toxic
COC(=O)[C@H](C)NS(=O)(=O)N[C@@H](C)C(=O)OC	Activity	Non-toxic
COC(=O)CCNS(=O)(=O)NC1CCCCC1	Activity	Non-toxic
COC(=O)CCNS(=O)(=O)Oc1ccccc1O	Activity	Non-toxic
CCCC(CCC)CNS(=O)(=O)NCC(=O)OC	Activity	Non-toxic
COC(=O)CCNS(=O)(=O)NC(=O)OC(C)(C)C	Activity	Non-toxic
CCCC(CCC)CN(C(=O)OC(C)(C)C)S(=O)(=O)NCC(=O)OC	Activity	Non-toxic
COC(=O)CNS(=O)(=O)NCc1ccccc1	Activity	Non-toxic
COC(=O)CCNS(=O)(=O)NCc1ccccc1	Activity	Non-toxic
COC(=O)[C@@H](NS(=O)(=O)N[C@H](C(=O)OC)C(C)C)C(C)C	Activity	Non-toxic
